B1: Hairpin Ribozyme (parent)
chain: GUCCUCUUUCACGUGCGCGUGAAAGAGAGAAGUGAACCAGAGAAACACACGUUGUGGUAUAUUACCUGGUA

- Variants of: B1
- assay-explanation: self-cleavage, relative activity (ratio to wild type); higher = more cleavage; co-transcriptional
readout-label: self-cleavage

macromolecule-sequence | readout-label | observed
GUCCUCUUUCACGUGCGCGUGAAAGAGAGAAGUGCACCAGAGAAACACACGUUGAGGUAUAUUACCUGGUA [A35C U55A] | self-cleavage | 0.177
GUCCUCUUUCACGUGCGCGUGAAAGAGAUAAGUGAACCAGAGAAACACAGGUUGUGGUAUAUUACCUGGUA [G29U C50G] | self-cleavage | 0.184
AUCCUCUUUCACGUGCGCGUGGAAGAGAGAAGUGAACCAGAGAAACACACGUUGUGGUAUAUUACCUGGUA [G1A A22G] | self-cleavage | 0.223
GUCCUCUUUCACGUGCGCGAGAAAGAGAGAAGUGAACCAGAGAAACACACGUUGUGGUAUAUUAACUGGUA [U20A C65A] | self-cleavage | 0.857
GUCCUCUUUCACGUGCGGGUGAAAGAGAGAAGUGAACCAGAGAAACACACGUUGUGGUAUAUUCCCUGGUA [C18G A64C] | self-cleavage | 0.158
GUCCUCUUUCACGUGCGCGUGAAAGAGAGAACUGAACCAGAGAAACACACGUUGUGAUAUAUUACCUGGUA [G32C G57A] | self-cleavage | 0.0977
GUCCUCUUUCACGUGCGCGUGAAAGAGAGAAGUGAACCAGAGAAACACACGUUGUGGUAUAUUUCGUGGUA [A64U C66G] | self-cleavage | 0.069
AUCCUCUUUCACGUGCGCGUGAAAGAGAGAAGUGACCCAGAGAAACACACGUUGUGGUAUAUUACCUGGUA [G1A A36C] | self-cleavage | 0.215
GUCCUCUUUCACGUGCGCGUGAAAGAGAGAAGUGGACCAGAGAAACACACGUUGUGGUAUAUCACCUGGUA [A35G U63C] | self-cleavage | 0.233
GUCCUCUUUCACGUGUGCGUGAAAGAGCGAAGUGAACCAGAGAAACACACGUUGUGGUAUAUUACCUGGUA [C16U A28C] | self-cleavage | 0.565
GUGCUCUUUCACGUGCGCGUGAAAGAGAGAAGUGAACCAGAGAAACACACGUUGUGGUAUAUUACCUGUUA [C3G G69U] | self-cleavage | 0.141
GUACUCUUUCACGUGCGCGUGAAAGACAGAAGUGAACCAGAGAAACACACGUUGUGGUAUAUUACCUGGUA [C3A G27C] | self-cleavage | 0.21
GUCCUCUUACACGUGCGCGUGAAAGAGAGAACUGAACCAGAGAAACACACGUUGUGGUAUAUUACCUGGUA [U9A G32C] | self-cleavage | 0.178
GUCCUCUUUCAUGUGCGCGUGAAAGAGAGAAGUGAACCAGAGAAACGCACGUUGUGGUAUAUUACCUGGUA [C12U A47G] | self-cleavage | 0.131
GUCCUCGUUCACGUGCGCGUGAAAGAGAGAAGUGAACCAGAGAAACACACGUUGUGGUCUAUUACCUGGUA [U7G A59C] | self-cleavage | 0.0534
GUCCUCUUUCACGUGCGCGUGAAAGAGAGACGUGAACCAGAGAAACACACGUUGUUGUAUAUUACCUGGUA [A31C G56U] | self-cleavage | 0.182
GUCCUCUUUCACGCGCGCGUGAAAGAGAGAAGUGAACCAGAGAAACACACGUUGUGGUAUAUUACCUGAUA [U14C G69A] | self-cleavage | 0.341
GUCCUAUUUCACGUGCGCGUGAAAGAGAAAAGUGAACCAGAGAAACACACGUUGUGGUAUAUUACCUGGUA [C6A G29A] | self-cleavage | 0.129
GUCCUCUUUCACGUGCGCGUGAAAGAGAGAAGUGAACCAGAGAAAGACACGUUGGGGUAUAUUACCUGGUA [C46G U55G] | self-cleavage | 0.107
GUCCUGUUUCACGUGCGCGUGAAAGAGAGAAGUGAACCUGAGAAACACACGUUGUGGUAUAUUACCUGGUA [C6G A39U] | self-cleavage | 0.164
UUCCUCUUUCACGUGCGCGUGAAAGAGAGAAUUGAACCAGAGAAACACACGUUGUGGUAUAUUACCUGGUA [G1U G32U] | self-cleavage | 0.0476
GUCCUCUUUCACGUGCGCGUGAAAGAGAGAAGUGAGCCAGAGAACCACACGUUGUGGUAUAUUACCUGGUA [A36G A45C] | self-cleavage | 0.189
GUCCUCUUUCACGUGCGCGUGAAAGACAGAAGUGAACCAGAGAAACACACGUUGUGGUAUAUUACCUGGGA [G27C U70G] | self-cleavage | 0.122
GUCCUCUUUCACGUGCGCGUGAAAGACAGAAGUGAACCAGAGAAACACACGUUGUGGUCUAUUACCUGGUA [G27C A59C] | self-cleavage | 0.104
GUCCUCUUUCACGUGCGCGUGAAAGAGCGAAGUGAACCAGAGAAACAGACGUUGUGGUAUAUUACCUGGUA [A28C C48G] | self-cleavage | 0.128
GCCCUCUUUCACGUGCGCGUGAAAGAGAGAAGUGAACCAGAGAAACACACGUUGUGGUAUAUUACCUGGCA [U2C U70C] | self-cleavage | 0.16
GUCCUCUUUCACGUGCGCGUGAAAGAGAGAAGUGAACCAGAGAAACACACGUUGUGGUAUAGUACGUGGUA [U62G C66G] | self-cleavage | 0.0965
AUCCUCUUUCACGUGCGCGUGAAAGAUAGAAGUGAACCAGAGAAACACACGUUGUGGUAUAUUACCUGGUA [G1A G27U] | self-cleavage | 0.153
GGCCUCUUUCACGUGCGCGUGAAAGAGAGAAGUGAACCAGAGAAACACACGUUGUGGUAUAUUACCUGCUA [U2G G69C] | self-cleavage | 0.0755
GUACUCUUUCACGUGCGCUUGAAAGAGAGAAGUGAACCAGAGAAACACACGUUGUGGUAUAUUACCUGGUA [C3A G19U] | self-cleavage | 0.582
GUCCUCUGUCACGUGCGCGUGAAAGAGAGAAGUGAACCAGAGAAACACAGGUUGUGGUAUAUUACCUGGUA [U8G C50G] | self-cleavage | 0.125
GUCCUCUUUCACGUGCGCGUGAAAGAAAGAAGUGAACCAGAGAAACACACGUUGUGGUUUAUUACCUGGUA [G27A A59U] | self-cleavage | 0.185
GUCCUCUUUCACGUGCGCGUGAAAGAGAGGGGUGAACCAGAGAAACACACGUUGUGGUAUAUUACCUGGUA [A30G A31G] | self-cleavage | 0.157
GUCCUCUUUCACGUGCGCGCGAAAGAGAGAAGUGAACCAGAGAAACACACGUUGUGGUAUAAUACCUGGUA [U20C U62A] | self-cleavage | 0.202
GUCCUCUUUCACGUGCGCGUGGAAGAGAGAAGUGAACCAGAGAAACACACGUUGUGGUAUAUUGCCUGGUA [A22G A64G] | self-cleavage | 0.565
GUCCUCUUUCACGUGCGCGUGCAAGAGAGAAGUGAACCAGAGAAACACACGUUGUGGUAUAUGACCUGGUA [A22C U63G] | self-cleavage | 0.109
GUCCUCUUUCACGUGCGCGUGAAAGAGAGAAGUGAACCCGAGAAACACACGUUGUGGUAUAUUACCUGGAA [A39C U70A] | self-cleavage | 0.188
GUCCUCUUUCACGUGCGCGUGAAAGAGAGAAGUGAACCAGAGAAACACACGUUGUUGUAUAUUACCUAGUA [G56U G68A] | self-cleavage | 0.183
GUCCUCUUUUACGUGCGCGUGAAAGAGAGAACUGAACCAGAGAAACACACGUUGUGGUAUAUUACCUGGUA [C10U G32C] | self-cleavage | 0.17
GUCCUCUUUCACGUGUGCGUGAAAGAGAGAAGUGAACCAGAGAAACACACGUUGUGGUAUAUCACCUGGUA [C16U U63C] | self-cleavage | 0.165
GUCCGCUUUCACGUGCGCGUGAAAGGGAGAAGUGAACCAGAGAAACACACGUUGUGGUAUAUUACCUGGUA [U5G A26G] | self-cleavage | 0.286
GUACUCUUUCACGUGCGCGUGAAAGAGAGAAGUAAACCAGAGAAACACACGUUGUGGUAUAUUACCUGGUA [C3A G34A] | self-cleavage | 1.07
GCCCUCUUUCACGUGCGCGUGAAAGAGAGAAGUGAACCAGAGAAACACACGUUGUGGUAUAUGACCUGGUA [U2C U63G] | self-cleavage | 0
GUCCUCUUUCACGUGCGCGUGAAAGAGAGAAGGGAACCAGAGAAACACACGUUGUGGUAUAUUUCCUGGUA [U33G A64U] | self-cleavage | 0.144
GUUCUCUUUAACGUGCGCGUGAAAGAGAGAAGUGAACCAGAGAAACACACGUUGUGGUAUAUUACCUGGUA [C3U C10A] | self-cleavage | 0.276
GUCCUCUUUCACGUGCGCGCGAAAGAGAGAAGUGAACCGGAGAAACACACGUUGUGGUAUAUUACCUGGUA [U20C A39G] | self-cleavage | 0.311
